Biological target: Avi-KRAS G12D (1-169) GppNHp/RAF1 RBD-3xFLAG (52-151) (Homo sapiens, UniProt P01116, G12D)
Construct: Avi-KRAS G12D (1-169)
Sequence (P01116 1-169 isoform P01116-2 G12D): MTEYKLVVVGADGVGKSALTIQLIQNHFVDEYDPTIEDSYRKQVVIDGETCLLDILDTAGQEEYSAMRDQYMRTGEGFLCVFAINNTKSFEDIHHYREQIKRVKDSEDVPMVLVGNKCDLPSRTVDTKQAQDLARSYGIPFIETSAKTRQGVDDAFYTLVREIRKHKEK
Experiment: Raf1-KRAS G12D-GppNHP disruption HTRF assay (Biological Example 1)
Assay type: binding
Conditions: KRAS G12D-GppNHp/RAF1 RBD HTRF
quantity measured: IC50

Illustrative cases are given below, each with its answer.
molecule="CCN(c1nc(OC[C@@]23CCCN2C[C@H](F)C3)nc2c(F)c(-c3ccc(F)c4sc(N)c(C#N)c34)c(C(F)(F)F)cc12)C1C[C@@H](C)N(C(=O)C2CC2)C1 (some centres unmarked) [Compound 516]" measured="< 100 nM"
molecule="CC(C)C(=O)N1CC[C@@](C)(N(C)c2nc(OC[C@@]34CCCN3C[C@H](F)C4)nc3c(F)c(-c4ccc(F)c5sc(N)c(C#N)c45)c(C(F)(F)F)cc23)[C@H]1C [Compound 345]" measured="1000 to 10000 nM"
molecule="CCN(c1nc(OC[C@@]23CCCN2C[C@H](F)C3)nc2c(F)c(-c3ccc(F)c4sc(N)c(C#N)c34)c(C(F)(F)F)cc12)[C@H]1CCN(C(=O)N2CCCC2)C1 [Compound 542]" measured="< 100 nM"
molecule="N#Cc1c(N)sc2c(F)ccc(-c3c(C(F)(F)F)cc4c(N5C[C@H]6C[C@@H](O)[C@@H]5C6)nc(OC[C@@]56CCCN5C[C@H](F)C6)nc4c3F)c12 [Compound 362]" measured="100 to 1000 nM"

// moving on: another record for IC50
Please look at this molecule and report its IC50: C[C@@H]1CC[C@@H](O)CN1c1nc(OC[C@@]23CCCN2C[C@H](F)C3)nc2c(F)c(-c3ccc(F)c4sc(N)c(C#N)c34)c(C(F)(F)F)cc12 [Compound 314]
100 to 1000 nM

###

Tested on: SW620 cells (KRAS G12V)
Assay: Cell-based pERK HTRF assay in SW620 cell (Biological Example 4)
Conditions: Homo sapiens, SW-620, SW620 (KRAS G12V) cells
Experimental: A pERK assay (Perkin Elmer) was used to determine the effectiveness of compounds in disrupting KRAS G12V protein/effector signaling in cells. On Day 1, cells (SW620) were seeded into 96-well plates at 3×10^4 cells/well in 80 μL complete growth media (RPMI, 10% FBS). On Day 2, cells were treated with compounds at 0.25% DMSO. The source plate was created with compounds diluted in media at 5-fold the final assay concentration. […]
pIC50: −log10 of the molar value.
quantity measured: pIC50

compound="CCN(c1nc(OC[C@@]23CCCN2C[C@H](F)C3)nc2c(F)c(-c3ccc(F)c4sc(N)c(C#N)c34)c(C(F)(F)F)cc12)[C@H]1C[C@H]2CCCC(=O)N2C1 (atropisomer, axis not shown; (aR)) [Compound 662]" quantity_measured=pIC50 measured="> 7.00"
compound="CCN(c1nc(OC[C@@]23CCCN2C[C@H](F)C3)nc2c(F)c(-c3ccc(F)c4sc(N)c(C#N)c34)c(C(F)(F)F)cc12)[C@H]1CCN(c2ccccn2)C1 [Compound 948]" quantity_measured=pIC50 measured="> 7.00"
compound="CCC(=O)N1CC[C@@H](N(C)c2nc(OC[C@@]34CCCN3C[C@H](F)C4)nc3c(F)c(-c4ccc(F)c5sc(N)c(C#N)c45)c(C(F)(F)F)cc23)[C@H]1C (atropisomer, axis not shown) [Compound 335]" quantity_measured=pIC50 measured="> 7.00"

Input CCN(c1nc(OC[C@@]23CCCN2C[C@H](F)C3)nc2c(F)c(-c3ccc(F)c4sc(N)c(C#N)c34)c(C(F)(F)F)cc12)C1CC(C(=O)N(C)C)C1 (some centres unmarked) [Compound 950] , output reported pIC50.
> 7.00

Supply recorded pIC50 for CCN(c1nc(OC[C@@]23CCCN2C[C@H](F)C3)nc2c(F)c(-c3ccc(F)c4sc(N)c(C#N)c34)c(C(F)(F)F)cc12)[C@H]1CCN(C(=O)OCC(F)(F)F)C1 (atropisomer, axis not shown) [Compound 849] here.
> 7.00

###

Here, each record is paired with measured IC50 data.
Tested on: SW620 cells (KRAS G12V)
Experiment: Cell-based pERK HTRF assay in SW620 cell (Biological Example 4)
Conditions: Homo sapiens, SW-620, SW620 (KRAS G12V) cells, pERK HTRF; class symbols

# example entries with known answers
molecule="N#Cc1c(N)sc2c(F)ccc(-c3c(C(F)(F)F)cc4c(N(C5CC5)[C@H]5CCN(C(=O)N6CC(F)C6)C5)nc(OC[C@@]56CCCN5C[C@H](F)C6)nc4c3F)c12 (atropisomer, axis not shown) [Compound 813]" measured="< 100 nM"
molecule="Cc1c(C(=O)N(C)C)nn2c1CN(c1nc(OC[C@@]34CCCN3C[C@H](F)C4)nc3c(F)c(-c4ccc(F)c5sc(N)c(C#N)c45)c(C(F)(F)F)cc13)CC2 (atropisomer, axis not shown; (aS)) [Compound 590]" measured="< 100 nM"
molecule="CCN(c1nc(OC[C@@]23CCCN2C[C@H](F)C3)nc2c(F)c(-c3ccc(F)c4sc(N)c(C#N)c34)c(C(F)(F)F)cc12)[C@H]1CCN(C(=O)[C@@H]2CC2(F)F)[C@@H]1C (atropisomer, axis not shown) [Compound 693]" measured="< 100 nM"
molecule="CCN(c1nc(OC[C@@]23CCCN2C[C@H](F)C3)nc2c(F)c(-c3ccc(F)c4sc(N)c(C#N)c34)c(C(F)(F)F)cc12)[C@@H]1C[C@H](C)N(C(=O)C2CC2)C1 (atropisomer, axis not shown) [Compound 588]" measured="< 100 nM"
molecule="CCN(c1nc(OC[C@@]23CCCN2C[C@H](F)C3)nc2c(F)c(-c3ccc(F)c4sc(N)c(C#N)c34)c(C(F)(F)F)cc12)[C@H]1C[C@H](COC)N(C(=O)OC)C1 (atropisomer, axis not shown) [Compound 718]" measured="< 100 nM"
molecule="CCN(c1nc(OC[C@@]23CCCN2C[C@H](F)C3)nc2c(F)c(-c3ccc(F)c4sc(N)c(C#N)c34)c(C(F)(F)F)cc12)[C@H]1CCN(C(=O)[C@@H](C)CF)C1 (atropisomer, axis not shown) [Compound 710]" measured="< 100 nM"
molecule="CCN1C[C@H](N(CC)c2nc(OC[C@@]34CCCN3C[C@H](F)C4)nc3c(F)c(-c4ccc(F)c5sc(N)c(C#N)c45)c(C(F)(F)F)cc23)CC1=O (atropisomer, axis not shown) [Compound 699]" measured="< 100 nM"
molecule="CCN(c1nc(OC[C@@]23CCCN2C[C@H](F)C3)nc2c(F)c(-c3ccc(F)c4sc(N)c(C#N)c34)c(C(F)(F)F)cc12)[C@H]1CCN(C(=O)[C@@H]2C[C@H]2C)C1 (atropisomer, axis not shown) [Compound 690]" measured="< 100 nM"

Answer with IC50 of CCN(CC)C(=O)c1nn2c(c1C)CN(c1nc(OCC34CCCN3CC(F)C4)nc3c(F)c(-c4ccc(F)c5sc(N)c(C#N)c45)c(C(F)(F)F)cc13)CC2 (stereo not drawn) [Compound 740] measured for SW620 cells (KRAS G12V).
< 100 nM

Answer with IC50 of CCN(c1nc(OC[C@@]23CCCN2C[C@H](F)C3)nc2c(F)c(-c3ccc(F)c4sc(N)c(C#N)c34)c(C(F)(F)F)cc12)[C@H]1CCN(C(=O)N2CC(C#N)C2)C1 (atropisomer, axis not shown) [Compound 778] measured for SW620 cells (KRAS G12V).
< 100 nM

Lab note: record IC50 of CCN(c1nc(OC[C@@]23CCCN2C[C@H](F)C3)nc2c(F)c(-c3ccc(F)c4sc(N)c(C#N)c34)c(C(F)(F)F)cc12)[C@H]1CCN(C(=O)[C@@H]2C[C@@H]2C)C1 (atropisomer, axis not shown) [Compound 689] tested on SW620 cells (KRAS G12V).
< 100 nM

###

Biological target: Avi-KRAS G12D (1-169) GppNHp/RAF1 RBD-3xFLAG (52-151) (Homo sapiens, UniProt P01116, G12D)
Construct: Avi-KRAS G12D (1-169)
Test: Raf1-KRAS G12D-GppNHP disruption HTRF assay (Biological Example 1)
Assay type: binding
Details: KRAS G12D, GppNHp-loaded; class symbols
pIC50: −log10 of the molar value.
quantity measured: pIC50

compound="CCN(c1nc(OC[C@@]23CCCN2C[C@H](F)C3)nc2c(F)c(-c3ccc(F)c4sc(N)c(C#N)c34)c(C(F)(F)F)cc12)[C@H]1C[C@@H](C)N(C(=O)[C@H](C)OC)C1 (atropisomer, axis not shown)" measured="6.00 to 7.00"
compound="CCN(c1nc(OC[C@@]23CCCN2C[C@H](F)C3)nc2c(F)c(-c3ccc(F)c4sc(N)c(C#N)c34)c(C(F)(F)F)cc12)[C@H]1C[C@@H](COC)N(C(=O)C2CC2)C1 (atropisomer, axis not shown)" measured="6.00 to 7.00"
compound="CCN(c1nc(OC[C@@]23CCCN2C[C@H](F)C3)nc2c(F)c(-c3ccc(F)c4sc(N)c(C#N)c34)c(C(F)(F)F)cc12)[C@H]1C[C@H]2CCN(C)C(=O)N2C1 (atropisomer, axis not shown)" measured="> 7.00"

# ---- query compound ----
Report measured pIC50; entry is CCN(c1nc(OC[C@@]23CCCN2C[C@H](F)C3)nc2c(F)c(-c3ccc(F)c4sc(N)c(C#N)c34)c(C(F)(F)F)cc12)[C@H]1CCN(C(=O)[C@@H]2CC23CC3)C1 (atropisomer, axis not shown)
6.00 to 7.00
